experiment description: Drug concentration in plasma and brain (HPLC) in Mdr1ab(−/−) mice
Format: in vivo, mouse
condition description: mouse, plasma, 0.23 µmol/kg SC, 2 h
observed property: concentration at 2 h (nM)
Form entry: value (nM) — number only.

Specify concentration at 2 h for CO/N=C1\C[C@]2(C[C@@H]3C[C@@H](C/C=C(\C)C[C@@H](C)/C=C/C=C4\CO[C@@H]5[C@H](O)C(C)=C[C@@H](C(=O)O3)[C@]45O)O2)O[C@H](/C(C)=C/C(C)C)[C@H]1C [Moxidectin] and stop.
60
